Biological target: Factor XIIIa (Homo sapiens)
Construct: purchased Fibrogammin®
Sequence (P00488 39-732 limits assumed): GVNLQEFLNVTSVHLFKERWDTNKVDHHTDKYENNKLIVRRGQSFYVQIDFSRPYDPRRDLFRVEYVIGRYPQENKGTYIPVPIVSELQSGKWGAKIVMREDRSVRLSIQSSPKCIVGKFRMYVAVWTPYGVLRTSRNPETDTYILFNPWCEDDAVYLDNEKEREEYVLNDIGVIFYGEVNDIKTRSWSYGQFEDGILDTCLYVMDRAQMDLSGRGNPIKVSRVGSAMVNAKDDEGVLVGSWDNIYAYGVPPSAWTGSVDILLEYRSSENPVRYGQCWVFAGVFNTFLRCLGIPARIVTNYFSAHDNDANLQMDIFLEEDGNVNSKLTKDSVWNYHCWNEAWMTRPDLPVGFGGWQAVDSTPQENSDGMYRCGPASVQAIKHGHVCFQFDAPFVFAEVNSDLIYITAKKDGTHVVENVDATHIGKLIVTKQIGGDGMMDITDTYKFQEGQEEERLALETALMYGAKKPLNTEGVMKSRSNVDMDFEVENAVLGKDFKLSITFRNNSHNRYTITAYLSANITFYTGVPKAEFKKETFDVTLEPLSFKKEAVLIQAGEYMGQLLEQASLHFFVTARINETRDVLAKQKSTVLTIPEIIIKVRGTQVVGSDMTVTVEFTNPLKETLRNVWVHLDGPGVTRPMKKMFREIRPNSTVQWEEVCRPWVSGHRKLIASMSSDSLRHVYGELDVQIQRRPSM
Assay: Crosslinking of D domain peptides to a glutamine substrate derived from α-2 plasmin inhibitor, catalyzed by FXIIIa, RP-HPLC
Format: biochemical
Conditions: equimolar peptide and glutamine substrate; incubation for 30 minutes with 10 U/ml FXIIIa, 37° C.
measure: Crosslinking Efficacy (1:1 molar ratio)*

Examples with their reported Crosslinking Efficacy (1:1 molar ratio)* follow.
• LKPTKAA (listed as Mus musculus) [SEQ ID NO: 7, N-terminally truncated mouse D domain] = 69.42
• PLKPAKSA (listed as Homo sapiens) [SEQ ID NO: 1, isolated D domain of human IGF-I] = 82.94
• KPAKSA (listed as Homo sapiens) [SEQ ID NO: 3, N-terminally truncated human D domain] = 58.37

[P] PLKPTKAA (listed as Mus musculus) [SEQ ID NO: 6, isolated D domain of mouse IGF-I]
[Q] KPTKAA (listed as Mus musculus) [SEQ ID NO: 8, N-terminally truncated mouse D domain]
Asked: For P and Q , which recorded Crosslinking Efficacy (1:1 molar ratio)* is lower? State the label of the item chosen.
Given back: Q
(Q: 55.68, P: 84.16)
